experiment: Half life in mouse liver microsomes; type: ADME, Microsome
readout label: half-life (min)

1. C[C@@H](CCc1ccc(Cl)c(Cl)c1)NCc1ccc(C(F)(F)F)cc1
2. C[C@H](CCc1ccc(Cl)c(Cl)c1)NCc1ccc(C(F)(F)F)cc1
I need your help: which of the pair 1 , 2 has higher half-life? Label of pick, please.
1

P. COc1cc2c(cc1OC)CN([C@H](C)CCc1ccc(Cl)c(Cl)c1)C2
Q. C[C@H](CCc1ccc(Cl)cc1)NCc1ccc(C(F)(F)F)cc1
R. CC(C)Oc1cc(CCC(C)(C)N2Cc3cccc(F)c3C2)ccc1O
S. COc1cc(CC[C@@H](C)N2Cc3cccc(F)c3C2)ccc1O
Would you mind ranking these compounds by ascending half-life? List labels; respect the requested ordering.
R, S, Q, P
(R: 4 min, S: 16 min, Q: 27 min, P: 61 min)

Value source: ChEMBL document CHEMBL4837254
